Hey, just so you know, these numbers are from ChEMBL document CHEMBL1145797.

methodDescription: Concentration to inhibit growth of v-src-transformed cells (SR-3Y1 cells) after 72 h exposure
Assay type: functional
conditionNotes: Rattus norvegicus, SR3Y1, 72 h
assayEndpoint: pIC50
Expect pIC50 as a plain number equal to -log10 of the molar concentration.

Worked examples, 5 molecules total:
[
  {
    "mol": "CCN(CC)CCNC(=O)CO\\N=C1/C=C/C=C\\[C@H]2O[C@@H]2C[C@@H](C)OC(=O)c2c(O)cc(O)c(Cl)c2C1",
    "pIC50": 5.64
  },
  {
    "mol": "C[C@@H]1C[C@H]2O[C@@H]2\\C=C/C=C/C(=N\\OCC(=O)NCc2cccnc2)Cc2c(Cl)c(O)cc(O)c2C(=O)O1",
    "pIC50": 6.54
  },
  {
    "mol": "C[C@@H]1C[C@H]2O[C@@H]2\\C=C/C=C/C(=N\\OCC(=O)NCC2CCCCC2)Cc2c(Cl)c(O)cc(O)c2C(=O)O1",
    "pIC50": 7.70
  },
  {
    "mol": "C[C@@H]1C[C@H]2O[C@@H]2\\C=C/C=C/C(=N\\OCC(=O)N2CCOCC2)Cc2c(Cl)c(O)cc(O)c2C(=O)O1",
    "pIC50": 6.89
  },
  {
    "mol": "C[C@@H]1C[C@H]2O[C@@H]2\\C=C/C=C/C(=N\\OCC(=O)NCCc2cccn2C)Cc2c(Cl)c(O)cc(O)c2C(=O)O1",
    "pIC50": 7.08
  }
]

### Prompt # pIC50 lookup, item C[C@@H]1C[C@H]2O[C@@H]2\C=C/C=C/C(=N\OCC(=O)N(CCO)CCO)Cc2c(Cl)c(O)cc(O)c2C(=O)O1
### Response 5.96
